Reference source for all entries: paper PMC11288027

tested on: L. brevis; assay: MIC against human gut microbiota; format: cell-based, Lactobacillus brevis; conditions: Levilactobacillus brevis, ATCC14864; L. brevis ATCC-14864, MRS broth, 5% CO2; read-out: minimum inhibitory concentration (MIC)
Counter-ions that a name gives are not always drawn.
READOUT_KIND: MIC (µg/mL)

| COMPOUND | UNIT_INFO | VALUE_MODIFIER | OBSERVED_MEASUREMENT |
| --- | --- | --- | --- |
| CCc1c(Cl)c(O)c(Cl)c(O)c1C(=O)O[C@H]1[C@H](O)[C@H](OC)[C@H](OC/C2=C\C=C\C[C@H](O)/C(C)=C/[C@H](CC)[C@@H](O[C@@H]3OC(C)(C)[C@@H](OC(=O)C(C)C)[C@H](O)[C@@H]3O)/C(C)=C/C(C)=C/C[C@@H]([C@@H](C)O)OC2=O)O[C@@H]1C | µg/mL | = | 64 |
| COc1cc2c(cc1O)CCN[C@]21CS[C@@H]2c3c(OC(C)=O)c(C)c4c(c3[C@H](COC1=O)N1[C@@H]2[C@H]2c3c(cc(C)c(OC)c3O)C[C@@H]([C@@H]1C#N)N2C)OCO4 | µg/mL | ≤ | 2 |
| COC(=O)N/N=C/c1c[n+]([O-])c2ccccc2[n+]1[O-] | µg/mL | = | 32 |
| N=C(N/N=C/c1ccc(Cl)cc1)N/N=C/c1ccc(Cl)cc1 [Robenidine hydrochloride] | µg/mL | = | 8 |
| CCCCc1oc2ccc(NS(C)(=O)=O)cc2c1C(=O)c1ccc(OCCCN(CCCC)CCCC)cc1 | µg/mL | = | 32 |
| Oc1c(Br)cc(Br)c2cccnc12 | µg/mL | = | 64 |
| Cc1ccc2c(Cl)cc(Cl)c(O)c2n1 | µg/mL | > | 256 |

====

tested on: C. difficile clinical isolates; assay: MIC against a panel of 20 C. difficile clinical isolates (broth microdilution); format: cell-based, Clostridioides difficile; settings: Clostridioides difficile, C. difficile NR-49308; read-out: minimum inhibitory concentration (MIC)
Counter-ions that a name gives are not always drawn.

| COMPOUND | VALUE_MODIFIER | MIC [µg/mL] |
| --- | --- | --- |
| CCc1c(Cl)c(O)c(Cl)c(O)c1C(=O)O[C@H]1[C@H](O)[C@H](OC)[C@H](OC/C2=C\C=C\C[C@H](O)/C(C)=C/[C@H](CC)[C@@H](O[C@@H]3OC(C)(C)[C@@H](OC(=O)C(C)C)[C@H](O)[C@@H]3O)/C(C)=C/C(C)=C/C[C@@H]([C@@H](C)O)OC2=O)O[C@@H]1C | ≤ | 0.0078 |
| COC(=O)N/N=C/c1c[n+]([O-])c2ccccc2[n+]1[O-] | = | 1 |
| Cc1ccc2c(Cl)cc(Cl)c(O)c2n1 | = | 0.06 |
| CCCCc1oc2ccc(NS(C)(=O)=O)cc2c1C(=O)c1ccc(OCCCN(CCCC)CCCC)cc1 | = | 4 |
| Oc1c(Br)cc(Br)c2cccnc12 | = | 0.06 |
| N=C(N/N=C/c1ccc(Cl)cc1)N/N=C/c1ccc(Cl)cc1 [Robenidine hydrochloride] | = | 1 |

====

test system: C. difficile clinical isolates; assay: MIC against a panel of 20 C. difficile clinical isolates (broth microdilution); assay type: cell-based, Clostridioides difficile; details: Clostridioides difficile, ATCCBAA1870, C. difficile ATCC BAA-1870 (Ribotype-027), purchased compounds, panel test; read-out: minimum inhibitory concentration (MIC)
Structures can show the parent of a compound that is named as a salt.
Recorded measurements of MIC, one per entry

| COMPOUND | VALUE_MODIFIER | MIC, mg/L |
| --- | --- | --- |
| CCc1c(Cl)c(O)c(Cl)c(O)c1C(=O)O[C@H]1[C@H](O)[C@H](OC)[C@H](OC/C2=C\C=C\C[C@H](O)/C(C)=C/[C@H](CC)[C@@H](O[C@@H]3OC(C)(C)[C@@H](OC(=O)C(C)C)[C@H](O)[C@@H]3O)/C(C)=C/C(C)=C/C[C@@H]([C@@H](C)O)OC2=O)O[C@@H]1C [Fidaxomicin] | ≤ | 0.0078 |
| Cc1ccc2c(Cl)cc(Cl)c(O)c2n1 [Chlorquinaldol] | = | 0.125 |
| Oc1c(Br)cc(Br)c2cccnc12 [Broxyquinoline] | = | 0.125 |
| COC(=O)N/N=C/c1c[n+]([O-])c2ccccc2[n+]1[O-] [Carbadox] | = | 2 |
| CCCCc1oc2ccc(NS(C)(=O)=O)cc2c1C(=O)c1ccc(OCCCN(CCCC)CCCC)cc1 [Dronedarone] | = | 4 |
| N=C(N/N=C/c1ccc(Cl)cc1)N/N=C/c1ccc(Cl)cc1 [Robenidine hydrochloride] | = | 2 |

====

test system: C. difficile clinical isolates; assay: MIC against a panel of 20 C. difficile clinical isolates (broth microdilution); format: cell-based, Clostridioides difficile; settings: Clostridioides difficile, C. difficile NR-49302; read-out: minimum inhibitory concentration (MIC)
Rule: measured MIC below 1 µg/mL gets T; anything equal to or greater than 1 µg/mL gets F.

| COMPOUND_STRING | LABEL |
| --- | --- |
| Cc1ccc2c(Cl)cc(Cl)c(O)c2n1 | T |
| CCCCc1oc2ccc(NS(C)(=O)=O)cc2c1C(=O)c1ccc(OCCCN(CCCC)CCCC)cc1 | F |
| CCc1c(Cl)c(O)c(Cl)c(O)c1C(=O)O[C@H]1[C@H](O)[C@H](OC)[C@H](OC/C2=C\C=C\C[C@H](O)/C(C)=C/[C@H](CC)[C@@H](O[C@@H]3OC(C)(C)[C@@H](OC(=O)C(C)C)[C@H](O)[C@@H]3O)/C(C)=C/C(C)=C/C[C@@H]([C@@H](C)O)OC2=O)O[C@@H]1C | T |
| Oc1c(Br)cc(Br)c2cccnc12 | T |
| COC(=O)N/N=C/c1c[n+]([O-])c2ccccc2[n+]1[O-] | F |

====

assay: in vitro; conditions: monkey

| COMPOUND | IC50 at 24 h |
| --- | --- |
| COc1cc2c(cc1O)CCN[C@]21CS[C@@H]2c3c(OC(C)=O)c(C)c4c(c3[C@H](COC1=O)N1[C@@H]2[C@H]2c3c(cc(C)c(OC)c3O)C[C@@H]([C@@H]1C#N)N2C)OCO4 [ET-770, ecteinascidin 770] | > 128 µg/mL |

====

Recorded measurements of MIC, one per entry
test system: B. fragilis; experiment: MIC against human gut microbiota; assay type: cell-based, Bacteroides fragilis; settings: Bacteroides fragilis, B. fragilis HM- 718, BHIS broth, anaerobic; read-out: minimum inhibitory concentration (MIC)
READOUT_KIND: MIC (µg/mL)

| COMPOUND_STRING | READOUT_KIND | VALUE_MODIFIER | OBSERVED_MEASUREMENT |
| --- | --- | --- | --- |
| Oc1c(Br)cc(Br)c2cccnc12 | MIC | = | 16 |
| CCc1c(Cl)c(O)c(Cl)c(O)c1C(=O)O[C@H]1[C@H](O)[C@H](OC)[C@H](OC/C2=C\C=C\C[C@H](O)/C(C)=C/[C@H](CC)[C@@H](O[C@@H]3OC(C)(C)[C@@H](OC(=O)C(C)C)[C@H](O)[C@@H]3O)/C(C)=C/C(C)=C/C[C@@H]([C@@H](C)O)OC2=O)O[C@@H]1C | MIC | > | 256 |
| CCCCc1oc2ccc(NS(C)(=O)=O)cc2c1C(=O)c1ccc(OCCCN(CCCC)CCCC)cc1 | MIC | = | 8 |
| COC(=O)N/N=C/c1c[n+]([O-])c2ccccc2[n+]1[O-] | MIC | = | 2 |

====

test system: Bif. angulatum; assay: MIC against human gut microbiota; format: cell-based, Bifidobacterium angulatum; details: Bifidobacterium angulatum; Bif. angulatum HM- 1189, BHIS broth, anaerobic; read-out: minimum inhibitory concentration (MIC)
Structures can show the parent of a compound that is named as a salt.

| COMPOUND | MIC |
| --- | --- |
| COc1cc2c(cc1O)CCN[C@]21CS[C@@H]2c3c(OC(C)=O)c(C)c4c(c3[C@H](COC1=O)N1[C@@H]2[C@H]2c3c(cc(C)c(OC)c3O)C[C@@H]([C@@H]1C#N)N2C)OCO4 [ET-770, ecteinascidin 770] | ≤ 2 µg/mL |
| CCc1c(Cl)c(O)c(Cl)c(O)c1C(=O)O[C@H]1[C@H](O)[C@H](OC)[C@H](OC/C2=C\C=C\C[C@H](O)/C(C)=C/[C@H](CC)[C@@H](O[C@@H]3OC(C)(C)[C@@H](OC(=O)C(C)C)[C@H](O)[C@@H]3O)/C(C)=C/C(C)=C/C[C@@H]([C@@H](C)O)OC2=O)O[C@@H]1C [Fidaxomicin] | ≤ 2 µg/mL |
| N=C(N/N=C/c1ccc(Cl)cc1)N/N=C/c1ccc(Cl)cc1 [Robenidine hydrochloride] | ≤ 2 µg/mL |
